# Test system: T. brucei BSF 427 growth, AlamarBlue, 48 h
# METHOD DESCRIPTION: trypanosome proliferation inhibition – absorbance, assay provider, round 3, counter-screen for T. brucei MetRS inhibitor project, dose response (AID 1053204)
Active and inactive are the calls of the source.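 Rule for the calls: active = IC50 of 10 µM or lower; inactive = IC50 above 10 µM.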
// reported IC50 per item

>>> reported_value("O=C(Cc1ccc(Nc2nc3ccc(Br)cc3[nH]2)cc1)NCCc1cccs1")
"8910 nM"
>>> reported_value("CCN(CC)C(=O)Cc1cn(CC(=O)Nc2cccc(C(F)(F)F)c2)c2ccccc12")
"> 10000 nM (inactive)"
>>> reported_value("Nc1c(Cl)ncnc1Nc1ccc(C(=O)O)cc1")
"> 10000 nM (inactive)"
>>> reported_value("CCN(CC)C(=O)C(=O)c1cn(CCNc2cc(Oc3ccccc3)cc(C(F)(F)F)c2)c2ccccc12")
"4080 nM"

Looking up CCN(CC)C(=O)C(=O)c1cn(CC(=O)Nc2cc(Oc3ccccc3OC)cc(C(F)(F)F)c2)c2ccccc12 , I see its IC50 listed as 952 nM

The reported IC50 of the compound O=C(Cn1cc(C(=O)C(=O)NCc2ccccc2)c2ccccc21)Nc1cc(Oc2ccccc2)cc(C(F)(F)F)c1 was 916 nM

Lookup result for CCN(CC)C(=O)C(=O)c1cn(CC(=O)Nc2cc(Oc3ccc(F)cc3)cc(C(F)(F)F)c2)c2ccccc12 ; measured IC50: 1420 nM

Quick note, IC50 for CCN(CC)C(=O)C(=O)c1cn(CCNc2cccc(C(F)(F)F)c2)c2ccccc12 landed at 5500 nM

GET /value?item= CCN(CC)C(=O)C(=O)c1cn(CC(=O)Nc2cc(Oc3ccccc3F)cc(C(F)(F)F)c2)c2ccccc12 &field=IC50 returns 1630 nM

So for CCN(CC)C(=O)C(=O)c1cn(CC(=O)Nc2cc(Oc3ccc(OC)cc3)cc(C(F)(F)F)c2)c2ccccc12 , the logged IC50 turned out to be 830 nM
